ASSAY_DETAILS: Plasma pharmacokinetics after single and multiple oral doses (noncompartmental analysis)
Type: in vivo, human
CONDITION_DETAILS: human, plasma, oral; 110 mg QD, Cycle 1 Day 15; read-out: AUCτ,ss, geometric mean (CV%)
PROPERTY: AUC (ng·h/mL)

molecule="COCCNCc1ccc(-c2cc3nccc(Oc4ccc(NC(=O)C5(C(=O)Nc6ccc(F)cc6)CC5)cc4F)c3s2)nc1 [sitravatinib, Sitravatinib]" property=AUC test_value=2250

###

ASSAY_DETAILS: Plasma pharmacokinetics after single and multiple oral doses (noncompartmental analysis)
Format: in vivo, human
CONDITION_DETAILS: human, plasma, oral; single dose 10 mg; read-out: t1/2, arithmetic mean (CV%) (converted)
PROPERTY: half-life (h)

compound="COCCNCc1ccc(-c2cc3nccc(Oc4ccc(NC(=O)C5(C(=O)Nc6ccc(F)cc6)CC5)cc4F)c3s2)nc1 [sitravatinib, Sitravatinib]" property=half-life test_value=43.6

###

ASSAY_DETAILS: Plasma pharmacokinetics after single and multiple oral doses (noncompartmental analysis)
Format: in vivo, human
CONDITION_DETAILS: human, plasma, oral; single dose 40 mg; read-out: AUClast, geometric mean (CV%)
PROPERTY: AUC(0-t)

input_smiles=COCCNCc1ccc(-c2cc3nccc(Oc4ccc(NC(=O)C5(C(=O)Nc6ccc(F)cc6)CC5)cc4F)c3s2)nc1 test_value="509 ng·h/mL"

###

ASSAY_DETAILS: Plasma pharmacokinetics after single and multiple oral doses (noncompartmental analysis)
Format: in vivo, human
CONDITION_DETAILS: human, plasma, oral, 80 mg, 80 mg QD, Cycle 1 Day 15; read-out: Cmax,ss, geometric mean (CV%)
PROPERTY: Cmax (ng/mL)

input_smiles=COCCNCc1ccc(-c2cc3nccc(Oc4ccc(NC(=O)C5(C(=O)Nc6ccc(F)cc6)CC5)cc4F)c3s2)nc1 test_value=69.2

###

ASSAY_DETAILS: Plasma pharmacokinetics after single and multiple oral doses (noncompartmental analysis)
Assay type: in vivo, human
CONDITION_DETAILS: human, plasma, oral, 10 mg, single dose 10 mg; read-out: Cmax, geometric mean (CV%)
PROPERTY: Cmax (ng/mL)

input_smiles=COCCNCc1ccc(-c2cc3nccc(Oc4ccc(NC(=O)C5(C(=O)Nc6ccc(F)cc6)CC5)cc4F)c3s2)nc1 readout_units=ng/mL test_value=3.54

###

ASSAY_DETAILS: Plasma pharmacokinetics after single and multiple oral doses (noncompartmental analysis)
Format: in vivo, human
CONDITION_DETAILS: human, plasma, oral, 150 mg, single dose 150 mg; read-out: tmax, median (min–max)
PROPERTY: Tmax (h)

compound="COCCNCc1ccc(-c2cc3nccc(Oc4ccc(NC(=O)C5(C(=O)Nc6ccc(F)cc6)CC5)cc4F)c3s2)nc1 [sitravatinib, Sitravatinib]" property=Tmax readout_units=h test_value=6

###

ASSAY_DETAILS: Plasma pharmacokinetics after single and multiple oral doses (noncompartmental analysis)
Type: in vivo, human
CONDITION_DETAILS: human, plasma, oral, 150 mg, 150 mg QD, Cycle 1 Day 15; read-out: tmax,ss, median (min–max)
Experimental: In the PK lead-in period, patients received a single oral dose of sitravatinib (10–200 mg) under fasted conditions with at least 200 mL of water, followed by PK sample collection for 3–7 days, depending on emerging PK information. […] PK samples were collected after a single dose during the PK lead-in period and following multiple oral doses during the study. Plasma PK samples were assayed for quantification of sitravatinib. The lower limit of quantification was 0.05 ng/mL. […]
PROPERTY: Tmax (h)

compound="COCCNCc1ccc(-c2cc3nccc(Oc4ccc(NC(=O)C5(C(=O)Nc6ccc(F)cc6)CC5)cc4F)c3s2)nc1 [sitravatinib, Sitravatinib]" test_value=7.83
